targetDesc: T1, recombinant human integrin-αvβ1 (human, UniProt P06756 31-992; P05556 21-728, limits assumed)
T1 construct: also called Recombinant Human Integrins
T1 sequence (P06756 31-992 limits assumed, chain 1 of 2): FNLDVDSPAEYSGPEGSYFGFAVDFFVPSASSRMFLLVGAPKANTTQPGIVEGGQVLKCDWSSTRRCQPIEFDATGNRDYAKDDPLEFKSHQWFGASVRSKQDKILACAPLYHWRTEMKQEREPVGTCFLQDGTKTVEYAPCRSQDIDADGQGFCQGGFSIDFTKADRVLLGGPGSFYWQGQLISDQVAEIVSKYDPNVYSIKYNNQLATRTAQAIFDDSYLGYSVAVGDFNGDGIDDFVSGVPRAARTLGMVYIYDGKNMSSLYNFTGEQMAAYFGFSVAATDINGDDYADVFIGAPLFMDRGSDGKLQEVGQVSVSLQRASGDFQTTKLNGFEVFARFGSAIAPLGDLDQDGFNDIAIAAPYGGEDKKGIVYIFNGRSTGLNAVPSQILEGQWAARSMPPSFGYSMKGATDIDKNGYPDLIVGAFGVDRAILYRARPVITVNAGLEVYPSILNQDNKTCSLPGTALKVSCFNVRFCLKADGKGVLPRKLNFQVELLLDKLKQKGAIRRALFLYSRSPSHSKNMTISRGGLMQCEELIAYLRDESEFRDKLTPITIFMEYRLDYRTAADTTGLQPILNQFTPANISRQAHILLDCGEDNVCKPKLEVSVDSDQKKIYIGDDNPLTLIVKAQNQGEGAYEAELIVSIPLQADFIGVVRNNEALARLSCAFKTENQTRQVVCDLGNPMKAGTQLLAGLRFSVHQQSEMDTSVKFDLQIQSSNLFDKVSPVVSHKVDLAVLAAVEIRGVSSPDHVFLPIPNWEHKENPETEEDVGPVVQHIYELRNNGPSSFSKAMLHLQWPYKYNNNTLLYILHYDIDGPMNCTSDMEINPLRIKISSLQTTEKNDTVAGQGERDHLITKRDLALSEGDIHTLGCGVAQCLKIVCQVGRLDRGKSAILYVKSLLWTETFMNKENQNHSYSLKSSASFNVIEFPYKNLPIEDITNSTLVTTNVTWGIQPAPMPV
T1 sequence (P05556 21-728 limits assumed, chain 2 of 2): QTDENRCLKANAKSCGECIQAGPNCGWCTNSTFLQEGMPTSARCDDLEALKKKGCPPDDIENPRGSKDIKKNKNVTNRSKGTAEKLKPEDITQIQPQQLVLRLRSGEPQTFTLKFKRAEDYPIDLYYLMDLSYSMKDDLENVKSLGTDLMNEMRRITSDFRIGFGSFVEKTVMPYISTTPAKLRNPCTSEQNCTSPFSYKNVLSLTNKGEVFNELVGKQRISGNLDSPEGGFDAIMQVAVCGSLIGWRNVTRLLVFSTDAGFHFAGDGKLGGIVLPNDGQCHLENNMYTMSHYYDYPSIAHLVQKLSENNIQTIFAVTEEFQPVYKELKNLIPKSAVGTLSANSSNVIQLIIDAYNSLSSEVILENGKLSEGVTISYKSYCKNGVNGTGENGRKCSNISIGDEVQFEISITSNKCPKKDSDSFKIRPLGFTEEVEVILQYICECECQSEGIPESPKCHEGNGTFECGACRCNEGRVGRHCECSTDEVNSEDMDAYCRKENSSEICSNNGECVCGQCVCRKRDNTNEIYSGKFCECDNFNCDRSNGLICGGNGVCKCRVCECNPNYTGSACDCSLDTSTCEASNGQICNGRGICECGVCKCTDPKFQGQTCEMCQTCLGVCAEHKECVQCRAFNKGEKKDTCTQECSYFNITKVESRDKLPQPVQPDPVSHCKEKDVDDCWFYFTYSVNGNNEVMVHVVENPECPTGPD
assayNotes: IgG titration on recombinant human integrin αvβ1, one site-total fit; assay format not stated
Set-up: unit not given here
Bmax: recorded values
Give the value as a plain number.

// known answers, use as guide
Incoming: Tell me its Bmax given IgG clone 10392, hG1/hk (pSCSTa-hG1 (10392) heavy chain, pSCSTa-hK (10392) light chain) (antibody, V domains shown, Full-length human IgG1/kappa made in Expi293 cells) VH: EVQLVESGGGLVQPGGSLRLSCAASGFNIYYSSIHWVRQAPGKGLEWVASISSSSGSTSTYADSVKGRFTISADTSKNTAYLQMNSLRAEDTAVYYCARSYYGGGYPYALDYWGQGTLVTVSS VL: DIQMTQSPSSLSASVGDRVTITCRASQSVSSAVAWYQQKPGKAPKLLIYSASSLYSGVPSRFSGSRSGTDFTLTISSLQPEDFATYYCQQYFGGLITFGQGTKVEIKR as the entry.
Outgoing: 0.412

Incoming: Tell me its Bmax given IgG clone 10404, hG1/hk (pSCSTa-hG1 (10404) heavy chain, pSCSTa-hK (10404) light chain) (antibody, V domains shown, Full-length human IgG1/kappa made in Expi293 cells) VH: EVQLVESGGGLVQPGGSLRLSCAASGFNLYSSSIHWVRQAPGKGLEWVAYIYPSYGYTSTYADSVKGRFTISADTSKNTAYLQMNSLRAEDTAVYYCARPAPYYSWYPAMDYWGQGTLVTVSS VL: DIQMTQSPSSLSASVGDRVTITCRASQSVSSAVAWYQQKPGKAPKLLIYSASSLYSGVPSRFSGSRSGTDFTLTISSLQPEDFATYYCQQASGSPFTFGQGTKVEIKR as the entry.
Outgoing: 1.09

Incoming: Tell me its Bmax given 10392 hG1 LALA PG/hk (antibody, human IgG1, V domains shown, not shown: human IgG1 constant region with 'LALA PG' changes) VH: EVQLVESGGGLVQPGGSLRLSCAASGFNIYYSSIHWVRQAPGKGLEWVASISSSSGSTSTYADSVKGRFTISADTSKNTAYLQMNSLRAEDTAVYYCARSYYGGGYPYALDYWGQGTLVTVSS VL: DIQMTQSPSSLSASVGDRVTITCRASQSVSSAVAWYQQKPGKAPKLLIYSASSLYSGVPSRFSGSRSGTDFTLTISSLQPEDFATYYCQQYFGGLITFGQGTKVEIKR as the entry.
Outgoing: 0.555

---
Incoming: Tell me its Bmax given 10404 hG4/hk (antibody, V domains shown, the IgG4 constant region used is not specified; not shown: human IgG4 constant region ('hG4')) VH: EVQLVESGGGLVQPGGSLRLSCAASGFNLYSSSIHWVRQAPGKGLEWVAYIYPSYGYTSTYADSVKGRFTISADTSKNTAYLQMNSLRAEDTAVYYCARPAPYYSWYPAMDYWGQGTLVTVSS VL: DIQMTQSPSSLSASVGDRVTITCRASQSVSSAVAWYQQKPGKAPKLLIYSASSLYSGVPSRFSGSRSGTDFTLTISSLQPEDFATYYCQQASGSPFTFGQGTKVEIKR as the entry.
Outgoing: 0.782

Incoming: Tell me its Bmax given 10404 hG1 LALA PG/hk (antibody, V domains shown, not shown: human IgG1 constant region with 'LALA PG' changes) VH: EVQLVESGGGLVQPGGSLRLSCAASGFNLYSSSIHWVRQAPGKGLEWVAYIYPSYGYTSTYADSVKGRFTISADTSKNTAYLQMNSLRAEDTAVYYCARPAPYYSWYPAMDYWGQGTLVTVSS VL: DIQMTQSPSSLSASVGDRVTITCRASQSVSSAVAWYQQKPGKAPKLLIYSASSLYSGVPSRFSGSRSGTDFTLTISSLQPEDFATYYCQQASGSPFTFGQGTKVEIKR as the entry.
Outgoing: 1.09

Incoming: Tell me its Bmax given 10392 hG4/hk (antibody, human IgG4, V domains shown, not shown: human IgG4 constant region ('hG4')) VH: EVQLVESGGGLVQPGGSLRLSCAASGFNIYYSSIHWVRQAPGKGLEWVASISSSSGSTSTYADSVKGRFTISADTSKNTAYLQMNSLRAEDTAVYYCARSYYGGGYPYALDYWGQGTLVTVSS VL: DIQMTQSPSSLSASVGDRVTITCRASQSVSSAVAWYQQKPGKAPKLLIYSASSLYSGVPSRFSGSRSGTDFTLTISSLQPEDFATYYCQQYFGGLITFGQGTKVEIKR as the entry.
Outgoing: 0.85
